Data credit: paper PMC7076694

molecular target: complex III (cytochrome bc1 complex) (Leishmania donovani); test: biochemical; assay type: biochemical; details: read-out: complex III IC50 values, Compound 1 RES1 lysate; lysate of L. donovani Compound 1 RES1 cell line
measured attribute: pIC50
The meaning of pIC50 here: minus log10 of the concentration in molar units.

Give me measured pIC50, please, for this molecule: Cc1nn2c(=O)c(Cc3ccc(Cl)cc3)c(C)[nH]c2c1C
6.66

---

Test system: T. brucei Procyclics
Assay: T. brucei procyclic drug sensitivity (resazurin)
Type: cell-based, Trypanosoma brucei
Settings: Trypanosoma brucei, read-out: EC50 values, T. brucei Pro
Description: To examine the effects of test compounds on growth, mid log procyclics were seeded into 96-well plates at a cell density of 5 × 10^5 cells mL^–1. Cells were exposed to test compounds over a range of concentrations (2-fold serial dilutions). Following 72 h of incubation in the presence of drug, 500 μM resazurin was added to each well and fluorescence measured after a further 2 h incubation.
measured attribute: pEC50
The meaning of pEC50 here: minus log10 of the concentration in molar units.

Give me measured pEC50, please, for this compound: CCCCCC[C@H]1C(=O)O[C@H](C)[C@H](NC(=O)c2cccc(NC=O)c2O)C(=O)O[C@@H](C)[C@@H]1OC(=O)CC(C)C [antimycin A, reference compound]
7.74

---

tested on: T. brucei Procyclics; assay: T. brucei procyclic drug sensitivity (resazurin); type: cell-based, Trypanosoma brucei; settings: procyclics; read-out: EC50 values, T. brucei Pro
measured attribute: pEC50
The meaning of pEC50 here: minus log10 of the concentration in molar units.

Give me measured pEC50, please, for this molecule: CCc1c(C)c(C#N)c2nc3ccccc3n2c1O [GNF7686, reference compound]
6.28

---

test system: T. cruzi epimastigotes; test: microbe, parasite or virus in culture; format: cell-based; conditions: Trypanosoma cruzi; compound 1-resistant epimastigote clone RES III; read-out: EC50 against T. cruzi RES III
measured attribute: EC50 (µM)
Entry rule: numbers only, all in µM.

Give measured EC50 for Cc1nn2c(=O)c(Cc3ccc(Cl)cc3)c(C)[nH]c2c1C [compound 1] (T. cruzi epimastigotes).
3.8

---

# pIC50 values compiled below
target: complex III (cytochrome bc1 complex) (Trypanosoma cruzi); experiment: Complex III (cytochrome c reduction) assay, T. cruzi lysate; settings: mitochondria-enriched lysate of epimastigotes
The meaning of pIC50 here: minus log10 of the concentration in molar units.

Study these solved cases before continuing.
INSERT INTO measurements (molecule, meas_value) VALUES
  ('Cc1nn2c(=O)c(Cc3ccc(Cl)cc3)c(C)[nH]c2c1C', 7.14),
  ('CCc1c(C)c(C#N)c2nc3ccccc3n2c1O [GNF7686, reference compound]', 6.26);

Give me measured pIC50, please, for this molecule: CC(=O)Nc1ccc2[nH]c(=O)n([C@H]3CC[C@H](C(C)C)CC3)c(=O)c2c1
7.07

Give me measured pIC50, please, for this molecule: Cc1cc(C)c2c(N)c(C(=O)N3CCC(C)(C)c4ccccc43)sc2n1
7.00

---

molecular target: complex III (cytochrome bc1 complex) (Leishmania donovani, UniProt A5HU08); experiment: biochemical; assay type: biochemical
measured attribute: pIC50
The meaning of pIC50 here: minus log10 of the concentration in molar units.

Study these solved cases before continuing.
INSERT INTO measurements (compound, meas_value) VALUES
  ('Cc1nn2c(=O)c(Cc3ccc(Cl)cc3)c(C)[nH]c2c1C [compound 1]', 7.36),
  ('Cc1cc(C)c2c(N)c(C(=O)N3CCC(C)(C)c4ccccc43)sc2n1 [compound 2]', 7.00);

We next turn to a different compound, shown below.
Give me measured pIC50, please, for this compound: CCc1c(C)c(C#N)c2nc3ccccc3n2c1O [GNF7686, reference compound]
5.80

---

# pEC50 values compiled below
test system: L. donovani promastigotes; test: microbe, parasite or virus in culture; assay type: cell-based, Leishmania donovani; conditions: Leishmania donovani; wild-type promastigotes; read-out: EC50 values, L. donovani Pro
The meaning of pEC50 here: minus log10 of the concentration in molar units.

Study these solved cases before continuing.
INSERT INTO results (molecule, measured_attribute, meas_value) VALUES
  ('Cc1cc(C)c2c(N)c(C(=O)N3CCC(C)(C)c4ccccc43)sc2n1 [compound 2]', 'pEC50', 7.62),
  ('Cc1nn2c(=O)c(Cc3ccc(Cl)cc3)c(C)[nH]c2c1C [compound 1]', 'pEC50', 7.72),
  ('CC(=O)Nc1ccc2[nH]c(=O)n([C@H]3CC[C@H](C(C)C)CC3)c(=O)c2c1 [compound 3]', 'pEC50', 5.79),
  ('CCc1c(C)c(C#N)c2nc3ccccc3n2c1O [GNF7686, reference compound]', 'pEC50', 6.24);

We next turn to a different molecule, shown below.
Give measured pEC50 for CCCCCC[C@H]1C(=O)O[C@H](C)[C@H](NC(=O)c2cccc(NC=O)c2O)C(=O)O[C@@H](C)[C@@H]1OC(=O)CC(C)C [antimycin A, reference compound] (L. donovani promastigotes).
8.70

---

molecular target: complex III (cytochrome bc1 complex) (Leishmania donovani, UniProt A5HU08, F187I); assay: biochemical
measured attribute: pIC50
The meaning of pIC50 here: minus log10 of the concentration in molar units.

Give measured pIC50 for Cc1cc(C)c2c(N)c(C(=O)N3CCC(C)(C)c4ccccc43)sc2n1 [compound 2] (complex III (cytochrome bc1 complex) (Leishmania donovani, UniProt A5HU08, F187I)).
5.38

---

System: HepG2 Cells
Test: HepG2 cell potency
Type: cell-based
Conditions: Homo sapiens; HepG2 cells; read-out: EC50 values, HepG2
Experimental: Table 1 Compound Efficacy: Potencies of Compounds Were Determined against L. donovani Promastigotes (Pro), L. donovani Intramacrophage Amastigotes (Intra-MAC), T. cruzi Epimastigotes (Epi), T. cruzi Intra-Vero Cells (Intra-Vero), T. brucei Bloodstream Forms (BSF), T. brucei Procyclics (Pro), and HepG2 Cells ^a | column: HepG2
# EC50 values compiled below

INSERT INTO measurements (compound, meas_value) VALUES
  ('Cc1nn2c(=O)c(Cc3ccc(Cl)cc3)c(C)[nH]c2c1C', '> 50 µM'),
  ('Cc1cc(C)c2c(N)c(C(=O)N3CCC(C)(C)c4ccccc43)sc2n1', '> 50 µM'),
  ('CC(=O)Nc1ccc2[nH]c(=O)n([C@H]3CC[C@H](C(C)C)CC3)c(=O)c2c1', '7.3 µM');

We next turn to a different compound, shown below.
Give me measured EC50, please, for this compound: CCc1c(C)c(C#N)c2nc3ccccc3n2c1O [GNF7686, reference compound]
> 50 µM

---

system: T. cruzi epimastigotes; assay: microbe, parasite or virus in culture; assay type: cell-based; settings: Trypanosoma cruzi; wild-type epimastigotes; read-out: EC50 values, T. cruzi Epi
measured attribute: pEC50
The meaning of pEC50 here: minus log10 of the concentration in molar units.

INSERT INTO assay_data (compound, study_system, meas_value) VALUES
  ('CC(=O)Nc1ccc2[nH]c(=O)n([C@H]3CC[C@H](C(C)C)CC3)c(=O)c2c1 [compound 3]', 'T. cruzi epimastigotes', 6.49);

Give me measured pEC50, please, for this compound: CCc1c(C)c(C#N)c2nc3ccccc3n2c1O [GNF7686, reference compound]
6.15

Give me measured pEC50, please, for this compound: CCCCCC[C@H]1C(=O)O[C@H](C)[C@H](NC(=O)c2cccc(NC=O)c2O)C(=O)O[C@@H](C)[C@@H]1OC(=O)CC(C)C [antimycin A, reference compound]
7.55

Give me measured pEC50, please, for this compound: Cc1nn2c(=O)c(Cc3ccc(Cl)cc3)c(C)[nH]c2c1C [compound 1]
6.68

Give me measured pEC50, please, for this compound: Cc1cc(C)c2c(N)c(C(=O)N3CCC(C)(C)c4ccccc43)sc2n1 [compound 2]
7.15
